Assay: CEM cell assay, toxicity (growth inhibition)
Format: cell-based
Details: human, cem cells; Toxic concentration which inhibits the growth of cells 50% relative to control; read-out: CEM Cell Assay TC50
Protocol: T4 lymphocytes (CEM cell line) are exposed to HIV at a virus to cell ratio approximately 0.05, and plated along with noninfected control cells in 96-well microliter plates. Candidate agent is dissolved in dimethyl sulfoxide (unless otherwise noted), then diluted 1:200 in cell culture medium. […] Individual wells are analyzed spectrophotometrically to quantitate formazan production, and in addition are viewed microscopically for detection of viable cells confirmation of protective activity. […]
experimental readout: CC50 (µM)
State the answer as a number, implicitly in µM.

Per the record, O=C(O)Cc1ccc(-n2sc3ccccc3c2=O)cc1 has CC50 of 69

Per the record, NS(=O)(=O)c1ccc(-n2sc3ccccc3c2=O)cc1 has CC50 of 21

The reported measurements were obtained from patent US5620997A.
